- experimental.target: T1, GST-NeDLG PDZ domains 1-2 fusion protein (Mus musculus (Mouse), UniProt P70175 147-332)
- T1 construct: also called NeDLG1; not shown: glutathione S-transferase (GST) encoded by pGEX-3X
- T1 chain: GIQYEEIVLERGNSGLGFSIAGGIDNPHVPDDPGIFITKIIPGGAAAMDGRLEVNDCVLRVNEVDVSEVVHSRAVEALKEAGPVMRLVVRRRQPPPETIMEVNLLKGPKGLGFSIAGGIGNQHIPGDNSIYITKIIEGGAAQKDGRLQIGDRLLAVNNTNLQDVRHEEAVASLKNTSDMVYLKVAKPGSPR
- assay.remarks: A/G assays
Ends that are not written are not given here. * marks the point of attachment. Biotin = O=C1N[C@H]2[C@H](CS[C@H]2CCCCC(=O)*)N1
property.measured: binding result

// known answers, use as guide
INSERT INTO assay_data (binder, property_measured, reported_value) VALUES
  ('Biotin-LERTSSVSPSTAEPELSIVF [CC CKR-3 C-terminal peptide AA43L]', 'binding result', 'no binding'),
  ('Biotin-TIYENLAPVTTFGKTIA [CD148 peptide AA55L (ending KTIA)]', 'binding result', 'no binding'),
  ('Biotin-SVFSIPTLWSPWPPSSSSQL (also called CD3-η) [CD3n C-terminal peptide AA4L]', 'binding result', 'no binding'),
  ('Biotin-HKAEIHAQPSDKERLTSDA [CD49F (Aform, alpha6) C-terminal peptide AA12L]', 'binding result', 'no binding'),
  ('Biotin-DLGNMEENKKLEENNHKTEA [CD166 (CD6L) C-terminal peptide AA20L]', 'binding result', 'no binding');

Find the recorded binding result belonging to Biotin-DTPSSSYTQSTMDHDLHDAL [CC CKR-4 C-terminal peptide AA44L] and report it.
no binding

Find the recorded binding result belonging to Biotin-TSGTGHNQTRALRASESGI [CD97 (CD55L) C-terminal peptide AA14L] and report it.
no binding

Find the recorded binding result belonging to Biotin-QFMTADETRNLQNVDMKIGV [CD44 (long form) C-terminal peptide AA9L] and report it.
no binding

Data credit: patent US6942981
